- System: MCF7 breast
- assay.overview: NCI tumour cell line growth inhibition, 48 h; in the data active = GI50 below about 0.43 µM; inactive = the rest
Output constraint: value belongs to true for active, false for inactive

compound: Oc1ccc2ccccc2c1C1NN=C(c2ccccc2)S1 (stereo unspecified)
label.value: true
//
compound: CCOC(=O)NC1=C(N2CC2)C(=O)C(NC(=O)OCC)=C(N2CC2)C1=O
label.value: false
//
compound: COc1ccc2nc3cc([N+](=O)[O-])ccc3c(NCCCN(CCO)CCO)c2c1
label.value: false
//
compound: COc1ccc([I+]c2ccccc2)cc1
label.value: false
//
compound: O=c1oc(-c2ccccc2)cc2cccc(O)c12
label.value: false

Could you kindly confirm the outcome this assay logged for Nc1nc2ccc3[nH]ncc3c2c2c1CCCC2 ? true

====

Quick reference: TGI of the listed items.
- Test system: NCI-H226 lung
- assay.overview: NCI tumour cell line growth inhibition, 48 h

Reference set (5 entries):
molecule: COC(=O)c1c(O)ccc2c1c1c(n2Cc2ccccn2)C(=O)c2ccccc2C1=O
reported.measurement: > 100 µM
//
molecule: COc1cc2c(cc1OC)C(CC1(O)CCCCC1)N(S(=O)(=O)c1ccc(C)cc1)CC2 (stereo not given)
reported.measurement: > 10 µM
//
molecule: COc1ccc([I+]c2ccccc2)cc1
reported.measurement: > 100 µM
//
molecule: COc1ccc2c(c1)c1nc3cc(C)c(C)cc3nc1n2CCN(C)C
reported.measurement: 2.97 µM
//
molecule: COC(=O)C(Cc1ccccc1)NC(=O)c1ccc(CNC(=S)NCc2cccc(CNC(=S)NCc3ccccc3)c2)cc1 (stereo not given)
reported.measurement: > 62.5 µM

GET /values?readout=TGI&item= CN(C(=O)C12C3(C(=O)C(C)(C)C)C4C5(C#N)C3C1(C(=O)C(C)(C)C)C5C42C(=O)C(C)(C)C)C(C)(C)C (stereo not given) > 50 µM

Okay, and C[C@H](N)C(=O)N[C@@H]1[C@H]2C(=C(O)C[C@@H](O)[C@@H]2O)C(=O)O[C@@H]1C ? > 100 µM

Okay, and c1ccc(CCN2CCN=C2Cc2ccccc2)cc1 ? > 100 µM

Okay, and CC1=Nc2c(C#N)ncn2N=C(C)C1 ? > 100 µM

Okay, and CCOC(=O)C1C[C@H]2CO[C@H](c3ccccc3)N2C1=O (stereo not given in full) ? > 100 µM

====

Quick reference: TGI of the listed items.
- System: U251 CNS
- assay.overview: NCI tumour cell line growth inhibition, 48 h

Reference set (3 entries):
compound: Cc1ccc(C(=O)/C(=C\c2ccc([N+](=O)[O-])cc2)S(=O)Cc2ccc(F)cc2)cc1 (stereo not given)
TGI: 3.22 µM

compound: COc1cc([C@H]2c3cc4c(cc3[C@H](NCc3ccc([N+](=O)[O-])cc3)C3COC(=O)[C@H]32)OCO4)cc(OC)c1O (stereo not given in full)
TGI: 3.26 µM

compound: O=C1OC(c2ccc(Cl)cc2)(c2ccc(Cl)cc2)c2c1ccc1ccccc21
TGI: > 100 µM

GET /values?readout=TGI&item= COc1nc2ccc(CNc3ccc(C(=O)O)cc3)cc2nc1OC > 10 µM

Okay, and CCCCCCCCCCCCCCCCCCOc1ccc(/C=C/C2=[N+](CCCl)CCO2)cc1 ? > 100 µM

====

- System: HCC-2998 colon
- assay.overview: NCI tumour cell line growth inhibition, 48 h
metric.name: TGI (µM)
Give the number; µM is assumed, so skip it.

compound: COc1cc(-c2csc(NC(=O)Nc3cc(C(F)(F)F)cc(C(F)(F)F)c3)n2)cc(OC)c1OC
target.or.test.system: HCC-2998 colon
metric.name: TGI
reported.measurement: 14.4
--
compound: CC(O)c1cc2c(s1)C(=O)c1scc(C(C)O)c1C2=O (centres undefined)
target.or.test.system: HCC-2998 colon
metric.name: TGI
reported.measurement: 3.46
--
compound: Cc1cc(C)c2c(=N)c3ccccc3n(CCCCCCn3c4ccccc4c(=N)c4c(C)cc(C)nc43)c2n1
target.or.test.system: HCC-2998 colon
metric.name: TGI
reported.measurement: 0.323

GET /values?readout=TGI&item= CC1=C(C(=O)Nc2ccc([N+](=O)[O-])cc2)C(c2ccccc2O)C(C(=O)Nc2ccc([N+](=O)[O-])cc2)=C(C)N1 27.2

Okay, and CCCOC(=O)N[C@H]1CCc2cc(OC)c(OC)c(OC)c2-c2ccc(SC)c(=O)cc21 ? 4.92

Okay, and Cc1ccc(C(=O)N2CCN(C(=O)c3ccc(C)cc3)c3ccccc32)cc1 ? 40.9

Okay, and CCC/C(Cl)=N\OC(=O)Nc1ccc(F)c([N+](=O)[O-])c1 ? 31.3

Okay, and COP(=O)(OC)c1ccc(NCc2cc(O)ccc2O)cc1 ? 51.6

====

- Tested on: RPMI-8226 leukemia
- assay.overview: NCI tumour cell line growth inhibition, 48 h; in the data active means GI50 below about 0.43 µM; inactive means the rest
Output constraint: value belongs to active, inactive

Solved entries:
compound: COc1ccc(-c2cn(-c3cccc(C(=O)/C=C/c4ccc(O)c(OC)c4)c3)c(=O)[nH]2)cc1
label.value: inactive

compound: CC1(C)N=C(N)N=C(N)N1c1ccc(CCc2ccc(Cl)cc2S(=O)(=O)F)c(Cl)c1
label.value: inactive

compound: Oc1ccc2ccccc2c1C1NN=C(c2ccccc2)S1 (stereo not given)
label.value: active

compound: CC(=O)OC(C)(C)/C=C/C(=O)[C@](C)(O)[C@H]1[C@H](O)C[C@@]2(C)[C@@H]3CC=C4[C@@H](C[C@H](O)C(=O)C4(C)C)[C@]3(CO)C(=O)C[C@]12C
label.value: active

Now, please, on to the next compound.
Could you kindly confirm the outcome this assay logged for Cn1c(/C=C(\C#N)c2cccc(C(F)(F)F)c2)nc2c(N3CCOCC3)nc(Cl)nc21 ? active

====

Quick reference: TGI of the listed items.
- System: SNB-19 CNS
- assay.overview: NCI tumour cell line growth inhibition, 48 h
Give the number; µM is assumed, so skip it.

compound: CCCCCCCC(=O)OCC(C[As](=O)(O)O)OC(=O)CCCCCCC (stereo not given)
unit.label: µM
TGI: 28.2

Shifting focus to the compound that follows.
GET /values?readout=TGI&item= CCC/C(Cl)=N\OC(=O)Nc1ccc(F)c([N+](=O)[O-])c1 28.5

====

- Test system: HL-60(TB) leukemia
- assay.overview: NCI tumour cell line growth inhibition, 48 h
Quick reference: TGI of the listed items.
Give the number; µM is assumed, so skip it.

Reference set (3 entries):
compound: Cc1ccc(C(=O)N2CCN(C(=O)c3ccc(C)cc3)c3ccccc32)cc1
unit.label: µM
reported.measurement: 4.21
//
compound: COc1cc2c(cc1OC)-c1ccc3cc4c(cc3c1N(CCN(C)C)C2)OCO4
unit.label: µM
reported.measurement: 0.681
//
compound: C=CCCC(On1c(-c2ccc(Cl)cc2)csc1=S)c1ccccc1 (centres undefined)
unit.label: µM
reported.measurement: 53.6

GET /values?readout=TGI&item= COC(=O)[C@@]12OC[C@]34C([C@@H](O)C1O)[C@@]1(C)CC(=O)C(O)=C(C)C1C[C@H]3OC(=O)[C@H](OC(=O)/C=C(/c1ccccc1)C(F)(F)F)[C@H]42 (some centres undefined) 1.41

Okay, and N#Cc1ccc(C2C3=C(CCCC3=O)OC3=C2C(=O)c2ccccc2C3=O)cc1 (centres undefined) ? 1.27

Okay, and CN[C@@H]1C[C@H]2O[C@@](C)([C@@H]1OC)n1c3ccccc3c3c4c(c5c6ccccc6n2c5c31)C(=O)N[C@H]4O ? 0.52

Okay, and O=C(Nc1ccc2[nH]c(C(=O)N3CC(CCl)c4c3cc([N+](=O)[O-])c3ccccc43)cc2c1)c1cc2ccccc2o1 (centres undefined) ? 380

Okay, and COC(=O)[C@@]1(O)CC(C)C=C1C=O (some centres undefined) ? 51.6

====

- System: UACC-62 melanoma
- assay.overview: NCI tumour cell line growth inhibition, 48 h
metric.name: TGI (µM)
Give the number; µM is assumed, so skip it.

compound: Clc1ccc2nc(CC3CCCC3)[nH]c2c1
unit.label: µM
reported.measurement: 33.4

GET /values?readout=TGI&item= O=CC(Br)C(Br)c1ccccc1 (centres undefined) 3.74

Okay, and CSc1nc(SC)c2c(C(N)=S)[nH]nc2n1 ? 55.6

Okay, and COc1ccc2nc3cc([N+](=O)[O-])ccc3c(NCCCN(CCO)CCO)c2c1 ? 11.6

====

- System: TK-10 renal
- assay.overview: NCI tumour cell line growth inhibition, 48 h
Where a SMILES comes first, the peptide text is derived from it. [ ]: non-standard residue; d: D form. pGlu = O=C1CC[CH](C(=O)O)N1
metric.name: TGI

Short answer please: TGI, TK-10 renal, entry CC(NC(=O)C(Cc1cnc[nH]1)NC(=O)C1CCC(=O)N1)C(N)=O (stereo not drawn) ([pGlu]-His-Ala-NH2; configuration not given here) > 100 µM

Okay, and COc1ccc(SC2c3ccc(C)cc3Oc3nc(N)c(C#N)c(N)c32)cc1 (stereo unspecified) ? 3.12 µM

Okay, and C=CCCC(On1c(-c2ccc(Cl)cc2)csc1=S)c1ccccc1 (stereo unspecified) ? > 100 µM

Okay, and C/C(CC(=O)Nc1ccc(Cl)cc1)=N\NC(=O)C[n+]1ccccc1 ? > 100 µM

Okay, and O=C1C2CC=CCC2C(=O)C12CCc1ccccc12 (stereo unspecified) ? > 100 µM

Okay, and O=C(Cc1ccccc1)N=Nc1c(O)[nH]c2ccccc12 ? > 100 µM

Okay, and Cc1ccc(C(=O)N2CCN(C(=O)c3ccc(C)cc3)c3ccccc32)cc1 ? > 100 µM

Okay, and CC(=O)Nc1ccc(-c2nnc(SCC(=O)Nc3cccc([N+](=O)[O-])c3)o2)cc1 ? 67.5 µM
